# System: rVACV Nluc/Scarlet
# experimental.protocol: microbe, parasite or virus in culture
# Format: cell-based, vaccinia virus (VACV)
# condition.notes: Orthopoxvirus vaccinia, A549, read-out: EC50 FP (Scarlet fluorescence)
Counter-ions that a name gives are not always drawn.
Listing of entries alongside the reported log10 of EC50.
Scale: decimal log of EC50, EC50 in nM.

Use the examples below as a reference point.
CC[C@H](CC#N)OC(=O)N[C@@H](C)c1cccc(NC(=O)Nc2ccc(-c3cnco3)c(OC)c2)c1    2.11
O=C1c2ccccc2-n2c1nc1ccccc1c2=O    3.14
CC[C@@]1([C@@H]2O[C@@H]([C@H]3O[C@@](O)(CO)[C@H](C)C[C@@H]3C)C[C@@H]2C)CC[C@H]([C@]2(C)CC[C@]3(C[C@H](O)[C@@H](C)[C@@H]([C@@H](C)[C@@H](OC)[C@H](C)C(=O)O)O3)O2)O1 [Monensin, monensin sodium salt]    1.85
FC(F)(F)c1ccc(/C=C/c2nc(COc3ccc(CCCCn4ccnn4)cc3)co2)cc1    1.70
CC(C)(C)[C@H]1CC[C@H](CC2=C(O)C(=O)c3ccccc3C2=O)CC1    3.25

The reported log10 of EC50 of the compound `CC(C)[C@@H]1NC(=O)[C@H](C)OC(=O)[C@@H](C(C)C)NC(=O)[C@@H](C(C)C)OC(=O)[C@H](C(C)C)NC(=O)[C@H](C)OC(=O)[C@@H](C(C)C)NC(=O)[C@@H](C(C)C)OC(=O)[C@H](C(C)C)NC(=O)[C@H](C)OC(=O)[C@@H](C(C)C)NC(=O)[C@@H](C(C)C)OC1=O` was 0.48

----------
# System: rVACV Nluc/GFP
# experimental.protocol: microbe, parasite or virus in culture
# Format: cell-based, vaccinia virus (VACV)
# condition.notes: Orthopoxvirus vaccinia, A549, read-out: EC50 Nluc
reported.endpoint: EC50 (nM)
// units = nM; emit number, no label

CC(C)[C@@H]1NC(=O)[C@H](C)OC(=O)[C@@H](C(C)C)NC(=O)[C@@H](C(C)C)OC(=O)[C@H](C(C)C)NC(=O)[C@H](C)OC(=O)[C@@H](C(C)C)NC(=O)[C@@H](C(C)C)OC(=O)[C@H](C(C)C)NC(=O)[C@H](C)OC(=O)[C@@H](C(C)C)NC(=O)[C@@H](C(C)C)OC1=O    2

For the next question, use this compound.
The reported EC50 of the compound `O=c1cnn([C@@H]2O[C@H](CO)[C@@H](O)[C@H]2O)c(=O)[nH]1` was 1590

----------
# System: rVACV Nluc/GFP
# experimental.protocol: microbe, parasite or virus in culture
# Type: cell-based, vaccinia virus (VACV)
# condition.notes: read-out: EC50 FP (GFP fluorescence)
Listing of entries alongside the reported EC50.
// units = µM; emit number, no label

Use the examples below as a reference point.
Fc1ccc(CNc2ncnc3ccc(F)cc23)cc1    4.43
CC(C)(C)[C@H]1CC[C@H](CC2=C(O)C(=O)c3ccccc3C2=O)CC1    1.95
CCCCCC[C@H]1C(=O)O[C@H](C)[C@H](NC(=O)c2cccc(NC=O)c2O)C(=O)O[C@@H](C)[C@@H]1OC(=O)CC(C)C [Antimycin A, antimycin A]    0.06

The reported EC50 of the compound `CO/C=C(/C(=O)OC)c1ccccc1Oc1cc(Oc2ccccc2C#N)ncn1` was 7.85

----------
# experimental.protocol: in vitro
# condition.notes: human
Structures can show the parent of a compound that is named as a salt.
Listing of entries alongside the reported CC50.

O=C(NN1C(=O)[C@@H]2[C@@H]3C=C[C@@H]([C@H]4C[C@@H]34)[C@@H]2C1=O)c1ccc(C(F)(F)F)cc1 [Tecovirimat, tecovirimat]    > 50 µM
Cc1c(-c2ccc(-c3ccccc3F)cc2)nc2ccc(F)cc2c1C(=O)O [Brequinar, brequinar sodium salt hydrate]    > 50 µM
NC(=O)c1[nH]nc([C@@H]2O[C@H](CO)[C@@H](O)[C@H]2O)c1O [Pyrazofurin, pyrazofurin]    > 50 µM
O=c1cnn([C@@H]2O[C@H](CO)[C@@H](O)[C@H]2O)c(=O)[nH]1 [Azauridine, 6-azauridine]    > 50 µM
COc1c(C)c2c(c(O)c1C/C=C(\C)CCC(=O)OCCN1CCOCC1)C(=O)OC2 [Mycophenolate mofetil, mycophenolate mofetil]    > 150 µM

The reported CC50 of the compound CC[C@H](CC#N)OC(=O)N[C@@H](C)c1cccc(NC(=O)Nc2ccc(-c3cnco3)c(OC)c2)c1 [AVN-944] was > 50 µM

The reported CC50 of the compound CC[C@@]1([C@@H]2O[C@@H]([C@H]3O[C@@](O)(CO)[C@H](C)C[C@@H]3C)C[C@@H]2C)CC[C@H]([C@]2(C)CC[C@]3(C[C@H](O)[C@@H](C)[C@@H]([C@@H](C)[C@@H](OC)[C@H](C)C(=O)O)O3)O2)O1 [Monensin, monensin sodium salt] was > 50 µM

The reported CC50 of the compound COc1c(C)c2c(c(O)c1C/C=C(\C)CCC(=O)O)C(=O)OC2 [Mycophenolic acid, mycophenolic acid] was > 150 µM

----------
# Test system: rVACV Nluc/GFP
# experimental.protocol: microbe, parasite or virus in culture
# Format: cell-based, vaccinia virus (VACV)
# condition.notes: Orthopoxvirus vaccinia, A549, read-out: EC50 Nluc
Structures can show the parent of a compound that is named as a salt.
reported.endpoint: EC50 (nM)
// units = nM; emit number, no label

Use the examples below as a reference point.
S=C(NCc1ccc2c(c1)OCO2)N1CCN(c2ncnc3c2oc2ccccc23)CC1 [Amuvatinib, amuvatinib]    3890
CC[C@@]1([C@@H]2O[C@@H]([C@H]3O[C@@](O)(CO)[C@H](C)C[C@@H]3C)C[C@@H]2C)CC[C@H]([C@]2(C)CC[C@]3(C[C@H](O)[C@@H](C)[C@@H]([C@@H](C)[C@@H](OC)[C@H](C)C(=O)O)O3)O2)O1 [Monensin, monensin sodium salt]    130
NCC(=O)Nc1ccc(-n2nc(C(F)(F)F)cc2-c2ccc3c(ccc4ccccc43)c2)cc1 [Osu-03012, OSU-03012]    2950
O=C1c2ccccc2-n2c1nc1ccccc1c2=O [Tryptanthrin, tryptanthrin]    810

For the next question, use this compound.
Readout EC50 for CC[C@H](CC#N)OC(=O)N[C@@H](C)c1cccc(NC(=O)Nc2ccc(-c3cnco3)c(OC)c2)c1 [AVN-944] , test system rVACV Nluc/GFP, was 70

----------
# Tested on: MPXV USA-2003 (NR-2500) clade II
# experimental.protocol: microbe, parasite or virus in culture
# Format: cell-based, monkeypox virus (MPXV)
# condition.notes: Monkeypox virus, A549, read-out: EC50 against MPXV
reported.endpoint: pEC50
Quick note: pEC50 means taking -log10 of the concentration in moles per liter.

CC[C@H](CC#N)OC(=O)N[C@@H](C)c1cccc(NC(=O)Nc2ccc(-c3cnco3)c(OC)c2)c1 [AVN-944]    6.77
C=C(C)[C@H]1Cc2c(ccc3c2O[C@@H]2COc4cc(OC)c(OC)cc4[C@@H]2C3=O)O1 [Rotenone, rotenone]    8.15

For the next question, use this molecule.
The reported pEC50 of the molecule COc1c(C)c2c(c(O)c1C/C=C(\C)CCC(=O)OCCN1CCOCC1)C(=O)OC2 [Mycophenolate mofetil, mycophenolate mofetil] was 5.97
